From: patent US12053459B2

- TARGET_SYSTEM: CDK2/Cyclin E1(14-475) (Homo sapiens)
- ASSAY_TEXT: Caliper LabChip EZ Reader mobility shift assay, inhibition of CDK2/Cyclin E1 activity
- Type: biochemical
- CONDITIONS_USED: class symbols A-D
MEASURED_PARAMETER: IC50

Worked set:
MOLECULE: COc1cc(C(=O)N2CC3CN(C(=O)Cc4c[nH]c5cc(Cl)ccc45)CC(C(=O)NCC(=O)NCCCc4ccccc4)C3C2)ccc1OC(C)C (stereo not drawn) [I-99]
TARGET_SYSTEM: CDK2/Cyclin E1(14-475) (Homo sapiens)
IC50: 0.5 to 5 µM

MOLECULE: CNC(=O)[C@H](CCCc1ccccc1)NC(=O)C1CN(C(=O)Cc2c[nH]c3c(C)cccc23)CC2CN(C(=O)c3ccc(OC(C)C)c(OC)c3)CC21 (stereo partly drawn) [I-175]
TARGET_SYSTEM: CDK2/Cyclin E1(14-475) (Homo sapiens)
IC50: > 10 µM

MOLECULE: CNC(=O)[C@H](CCCc1ccccc1O)NC(=O)C1CN(C(=O)Cc2c[nH]c3cc(Cl)ccc23)CC2CN(C(=O)c3ccc(OC(C)C)c(OC)c3)CC21 (stereo partly drawn) [I-127]
TARGET_SYSTEM: CDK2/Cyclin E1(14-475) (Homo sapiens)
IC50: 0.5 to 5 µM

MOLECULE: CNC(=O)[C@H](CCCc1ccccc1)NC(=O)C1CN(C(=O)Cc2c[nH]c3cc(Cl)ccc23)CC2CN(C(=O)c3n[nH]c4ccccc34)CC21 (stereo partly drawn) [I-28]
TARGET_SYSTEM: CDK2/Cyclin E1(14-475) (Homo sapiens)
IC50: > 10 µM

MOLECULE: CNC(=O)[C@H](CCCc1ccccc1)NC(=O)C1CN(C(=O)c2cc(-c3ccccc3)n[nH]2)CC2CN(C(=O)c3ccc(OC(C)C)c(OC)c3)CC21 (stereo partly drawn) [I-168]
TARGET_SYSTEM: CDK2/Cyclin E1(14-475) (Homo sapiens)
IC50: > 10 µM

MOLECULE: COc1cc(C(=O)N2CC3CN(C(=O)Cc4c[nH]c5cc(Cl)ccc45)CC(C(=O)Nc4ccnc(Cc5ccccc5)c4)C3C2)ccc1OC(C)C (stereo not drawn) [I-239]
TARGET_SYSTEM: CDK2/Cyclin E1(14-475) (Homo sapiens)
IC50: 0.5 to 5 µM

MOLECULE: CNC(=O)[C@@H](CCCc1ccc(C(F)(F)F)cc1)NC(=O)C1CN(C(=O)Cc2c[nH]c3cc(Cl)ccc23)CC2CN(C(=O)c3ccc(OC(C)C)c(OC)c3)CC21 (stereo partly drawn) [I-134]
TARGET_SYSTEM: CDK2/Cyclin E1(14-475) (Homo sapiens)
IC50: > 10 µM

MOLECULE: CNC(=O)[C@H](CCCc1ccccc1)NC(=O)C1CN(C(=O)Cc2c[nH]c3cc(Cl)ccc23)CC2CN(C(=O)c3ccc(OC)c(OC)c3)CC21 (stereo partly drawn) [I-33]
TARGET_SYSTEM: CDK2/Cyclin E1(14-475) (Homo sapiens)
IC50: 5 to 10 µM

Exercise: Can you share its IC50? I mean this molecule: CNC(=O)[C@H](CCCc1ccccc1)NC(=O)C1CN(C(=O)c2ccc(C)cn2)CC2CN(C(=O)c3ccc(OC(C)C)c(OC)c3)CC21 (stereo partly drawn) [I-184]
Key: > 10 µM
